All values here come from PubChem BioAssay AID1159580.

ASSAY_SUMMARY: chemical genetic growth profiling, strain panel (AID 1159580);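 also: tested at 20 µM; growth read once vehicle control cultures reached saturation at 30 °C; 1 = growth at the plate median or of vehicle wells; lower values mean less growth of the strain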
COND: S. cerevisiae deletion strains, growth OD, locus YJL154C, strain vps35
The campaign covered roughly 5,500 compounds. About 2,000 (36%) were called active. Roughly 18% stayed inconclusive and do not appear here. Rule as the data show it: active = normalized growth mostly below about 0.91 (no sharp cut-off); inconclusive = no clear call, values can overlap the other calls; inactive = mostly above about 0.92. This is one part of the list.
Labels: active, inactive

INSERT INTO measurements (compound, category) VALUES
  ('CCOC(=O)CCC(=O)O[C@H]1[C@H](O[C@@H]2[C@@H](C)[C@H](O[C@H]3C[C@@](C)(OC)[C@@H](O)[C@H](C)O3)[C@@H](C)C(=O)O[C@H](CC)[C@@](C)(O)[C@H](O)[C@@H](C)C(=O)[C@H](C)C[C@@]2(C)O)O[C@H](C)C[C@@H]1N(C)C', 'inactive'),
  ('CCOC(=O)c1c(C)cc(O)c(C=O)c1O', 'active'),
  ('CC(N)CCCC(C)(C)O (configuration not stated)', 'inactive'),
  ('CCOC(=O)c1c(C)c(Cl)c(O)c(Cl)c1O', 'active'),
  ('CC1CC2C3CC(F)C4=CC(=O)C=CC4(C)C3(F)C(O)CC2(C)C1(O)C(=O)CO (configuration not stated)', 'inactive'),
  ('CC(C(=O)O)c1ccc(-c2ccccc2)c(F)c1 (configuration not stated)', 'inactive'),
  ('Cc1cc(O)c(C)c(O)c1C(=O)O', 'inactive');

====

ASSAY_SUMMARY: chemical genetic growth profiling, strain panel (AID 1159580);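 also: tested at 20 µM; growth read once vehicle control cultures reached saturation at 30 °C; 1 = growth at the plate median or of vehicle wells; lower values mean less growth of the strain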
COND: S. cerevisiae deletion strains, growth OD, locus YLR320W, strain mms22, hits give low values
Out of some 5,500 compounds screened, about 2,000 (36%) were called active. About 18% were inconclusive and are not listed. Some of the results follow.
QUANTITY_MEASURED: normalized growth

INSERT INTO results (molecule, quantity_measured, value_measured) VALUES
  ('O=C1C=CC(=C(c2ccc(O)cc2)c2ccc(O)cc2)C=C1', 'normalized growth', 0.972),
  ('COc1ccc2c(c1OC)C(=O)O[C@@H]2[C@H]1c2cc3c(cc2CCN1C)OCO3', 'normalized growth', 0.967),
  ('C=C(C)C1CNC(C(=O)O)C1CC(=O)O (stereo not given)', 'normalized growth', 0.991),
  ('N=c1ccn2c(n1)O[C@@H]1C2O[C@H](CO)[C@H]1O (stereo not given in full)', 'normalized growth', 0.971),
  ('NC(=O)C(c1ccccc1)(c1ccccc1)C1CCN(CCc2ccc3c(c2)CCO3)C1 (stereo not given)', 'normalized growth', 1.01),
  ('COc1ccc2c(c1OC)C(=O)O[C@H]2[C@H]1c2cc3c(cc2CCN1C)OCO3', 'normalized growth', 1),
  ('CCOC(=O)[C@H](CCc1ccccc1)N[C@H]1CCc2ccccc2N(CC(=O)O)C1=O', 'normalized growth', 0.966),
  ('CCOC(=O)C(C)(C)Oc1ccc(Cl)cc1', 'normalized growth', 0.944),
  ('CC1=C(C(C)O)C2=NC1C=c1[nH]c(c(C)c1C(C)O)=Cc1[nH]c(c(CCC(=O)O)c1C)C=c1[nH]c(c(C)c1CCC(=O)O)=C2 (stereo not given)', 'normalized growth', 0.938),
  ('c1cncc(C2CCCCN2)c1 (stereo not given)', 'normalized growth', 0.981);

====

ASSAY_SUMMARY: chemical genetic growth profiling, strain panel (AID 1159580);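 also: tested at 20 µM; growth read once vehicle control cultures reached saturation at 30 °C; 1 = growth at the plate median or of vehicle wells; lower values mean less growth of the strain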
COND: S. cerevisiae deletion strains, growth OD, locus YHR079C, strain IRE1 (second series), hits give low values
Hit rate of the full screen: of about 5,500 compounds, about 2,000 (36%) were called active. Not shown: some 18% with an inconclusive outcome. This is one part of the list.
QUANTITY_MEASURED: normalized growth

INSERT INTO assay_data (compound, value_measured) VALUES
  ('COc1ccc2cc([C@H](C)C(=O)O)ccc2c1', 1),
  ('COc1ccc2c(c1OC)C(=O)O[C@H]2[C@H]1c2cc3c(cc2CCN1C)OCO3', 1.02),
  ('CN1CCC(=C2c3ccccc3CC(=O)c3sccc32)CC1', 1.02),
  ('COc1cc2c(cc1OC)[C@@H]1C(=O)c3ccc4c(c3O[C@@H]1CO2)C=CC(C)(C)O4', 0.987),
  ('CC1/C(=N\O)C[C@@H]2C[C@H]1C2(C)C (stereo partly drawn)', 1.03),
  ('CC(C)(OC(=O)c1ccccc1)[C@@H]1Cc2cc3ccc(=O)oc3cc2O1', 1),
  ('CC1(C)C(C=C(Cl)Cl)C1C(=O)OC(C#N)c1cccc(Oc2ccccc2)c1 (stereo not drawn)', 1),
  ('CC(C)CC(NC(=O)C(Cc1ccccc1)NC(=O)CNC(=O)CNC(=O)C(N)Cc1ccc(O)cc1)C(=O)O (stereo not drawn)', 0.996),
  ('CCC(=O)O[C@H]1CCC2C3CCC4=CC(=O)CC[C@]4(C)C3CC[C@@]21C (stereo partly drawn)', 0.981),
  ('CC(CCc1ccccc1)NC(C)C(O)c1ccc(O)cc1 (stereo not drawn)', 1),
  ('O=C(CC[N+](=O)[O-])OC[C@H]1O[C@@H](O)[C@H](OC(=O)CC[N+](=O)[O-])[C@@H](OC(=O)CC[N+](=O)[O-])[C@@H]1OC(=O)CC[N+](=O)[O-]', 0.998),
  ('NC(=O)c1ccc[n+]([C@@H]2O[C@H](COP(=O)([O-])OP(=O)(O)OC[C@H]3O[C@@H](n4cnc5c(N)ncnc54)[C@H](O)[C@@H]3O)[C@@H](O)[C@H]2O)c1', 1),
  ('S=c1nc[nH]c2nc[nH]c12', 0.983),
  ('COC1=CC(=O)C[C@@H](C)[C@]12Oc1c(Cl)c(OC)cc(OC)c1C2=O', 0.995),
  ('OCCN1C[C@@H](O)[C@@H](O)C(O)C1CO (stereo partly drawn)', 1.01),
  ('C[N+](C)(C)CCCCCC[N+](C)(C)C', 0.993),
  ('CC1CC2C3CCC4=CC(=O)C=C[C@]4(C)[C@@]3(F)[C@@H](O)C[C@]2(C)[C@@]1(O)C(=O)CO (stereo partly drawn)', 0.965),
  ('CCOC(=O)c1c(C)cc(O)c(C=O)c1O', 0.16),
  ('CC(C(=O)O)c1cccc(C(=O)c2ccccc2)c1 (stereo not drawn)', 0.974),
  ('NCC1CCC(C(=O)O)CC1 (stereo not drawn)', 0.985),
  ('COc1ccc2c(c1OC)C(=O)O[C@@H]2[C@H]1c2cc3c(cc2CCN1C)OCO3', 1.02),
  ('CC(=O)OC(C)(C)[C@@H]1Cc2cc3ccc(=O)oc3cc2O1', 1),
  ('COc1cc2c(cc1OC)[C@@H]1C(=O)c3ccc(O)c(CC=C(C)C)c3O[C@@H]1CO2', 1),
  ('CCC(C)C(=O)O[C@H]1[C@H](O)C2C(CN3CC(C)CCC3[C@@]2(C)O)C2C[C@]34O[C@]5(O)C(OC(=O)C(C)(O)C(C)O)CC[C@@]3(C)C5C(OC(C)=O)[C@@H](OC(C)=O)C4[C@@]21O (stereo partly drawn)', 0.998),
  ('COc1cc2c(cc1OC)[C@@H]1C(=O)c3ccc4oc(C(C)C)cc4c3O[C@@H]1CO2', 1),
  ('COc1ccc(OC)c(C(O)C(C)N)c1 (stereo not drawn)', 0.988),
  ('OCC(O)C(O)C(O)CO (stereo not drawn)', 0.994),
  ('CC(C)(O)[C@@H]1[C@H]2OC(=O)[C@@H]1[C@]1(O)C[C@H]3O[C@]34C(=O)O[C@H]2[C@]14C', 1.01),
  ('Cc1cc(O)c(C=O)c(O)c1C(=O)O', 1.01),
  ('C[C@]12CC(=O)C3C(CC[C@@H]4C[C@H](O)CC[C@]34C)C1CC[C@]2(O)C(=O)CO (stereo partly drawn)', 0.992),
  ('CC(C(=O)O)c1cccc(Oc2ccccc2)c1 (stereo not drawn)', 0.972),
  ('CC1=C(/C=C/C(C)=C/C=C/C(C)=C/C=C/C=C(C)/C=C/C=C(C)/C=C/C2=C(C)C(=O)C(O)CC2(C)C)C(C)(C)CC(O)C1=O (stereo not drawn)', 0.996),
  ('COc1ccc2c3c1O[C@H]1C[C@@H](O)C=C[C@@]31CCN(C)C2', 1.02),
  ('CCOC(=O)CCC(=O)O[C@H]1[C@H](O[C@@H]2[C@@H](C)[C@H](O[C@H]3C[C@@](C)(OC)[C@@H](O)[C@H](C)O3)[C@@H](C)C(=O)O[C@H](CC)[C@@](C)(O)[C@H](O)[C@@H](C)C(=O)[C@H](C)C[C@@]2(C)O)O[C@H](C)C[C@@H]1N(C)C', 0.962),
  ('COc1ccc2c(c1)O[C@@H]1COc3cc(OC)c(OC)cc3[C@@H]1C2=O', 0.814),
  ('CC(Oc1ccccc1)C(=O)N[C@@H]1C(=O)N2[C@@H]1SC(C)(C)[C@@H]2C(=O)O (stereo partly drawn)', 1.02),
  ('CN(C)CC/C=C1\c2ccccc2Sc2ccc(Cl)cc21', 1),
  ('CN1CCC(=C2c3ccccc3Sc3ccccc32)CC1', 1.02);
